- protocol: Fluorescence quantum yield in ethanol
- Format: physicochemical
- particulars: room temperature, triplicate, Rhodamine B as standard
readout_type: fluorescence quantum yield φF

fluorescence quantum yield φF for OCCN1C=C/C(=C\C=C\c2sc3ccccc3[n+]2CCOc2ccccc2)c2ccccc21.[Br-] is 1.181×10^−2

fluorescence quantum yield φF for CCOC(=O)CCCN1C=C/C(=C\C=C\c2sc3ccccc3[n+]2CCO)c2ccccc21.[Br-] is 1.248×10^−2

fluorescence quantum yield φF for CCN1C=C/C(=C\C=C\c2sc3ccccc3[n+]2CC)c2ccccc21.[I-] [Dye-0, reference compound] is 1.099×10^−2

fluorescence quantum yield φF for CCOC(=O)CCCCC[n+]1c(/C=C/C=C2\C=CN(Cc3ccccc3)c3ccccc32)sc2ccccc21.[Br-] is 1.590×10^−2

Where do the numbers come from? From patent US8067602B2.
